# system-tested: PDPK1 (human) (UniProt O15530)
# Sequence (O15530 whole entry, looked up): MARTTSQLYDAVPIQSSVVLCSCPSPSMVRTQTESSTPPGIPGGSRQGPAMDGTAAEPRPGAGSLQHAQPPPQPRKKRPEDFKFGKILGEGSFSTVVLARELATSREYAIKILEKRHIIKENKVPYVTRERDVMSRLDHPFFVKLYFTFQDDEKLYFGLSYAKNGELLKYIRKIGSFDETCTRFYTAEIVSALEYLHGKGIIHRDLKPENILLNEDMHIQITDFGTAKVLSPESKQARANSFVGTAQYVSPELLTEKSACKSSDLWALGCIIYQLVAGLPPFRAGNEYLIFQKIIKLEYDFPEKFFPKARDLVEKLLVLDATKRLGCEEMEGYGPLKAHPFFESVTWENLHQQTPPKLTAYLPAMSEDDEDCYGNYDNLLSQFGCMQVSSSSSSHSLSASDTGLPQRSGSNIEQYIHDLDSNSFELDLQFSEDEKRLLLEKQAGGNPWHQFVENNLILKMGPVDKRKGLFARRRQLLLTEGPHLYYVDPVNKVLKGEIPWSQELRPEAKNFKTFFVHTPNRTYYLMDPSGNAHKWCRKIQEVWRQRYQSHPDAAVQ
# protocol-details: radiometric filter-binding kinase assay, Kinase HotSpot
# assay-conditions: compound 0.5 µM; ATP 10 µM
readout: residual activity (%)
Only the number, expressed in %, is required.

Reported residual activity (PDPK1 (human) (UniProt O15530)) for entry CC(C)[C@H](CO)Nc1nc(Nc2cc(N)cc(Cl)c2)c2ncn(C(C)C)c2n1 is 106

Reported residual activity (PDPK1 (human) (UniProt O15530)) for entry CCn1cnc2c(Nc3cccc(Cl)c3)nc(N[C@@H]3CCCC[C@@H]3N)nc21 is 94.8

Reported residual activity (PDPK1 (human) (UniProt O15530)) for entry CC(C)c1nn(-c2c(Cl)cccc2Cl)c2nc(Cc3ccc(OCCO)cc3)nc(O)c12 is 94.9

Reported residual activity (PDPK1 (human) (UniProt O15530)) for entry O=C1NC(=O)/C(=C\c2ccc3nccnc3c2)S1 is 104

* * *

# system-tested: ABL2 (human) (UniProt P42684)
# Sequence (P42684 whole entry, looked up): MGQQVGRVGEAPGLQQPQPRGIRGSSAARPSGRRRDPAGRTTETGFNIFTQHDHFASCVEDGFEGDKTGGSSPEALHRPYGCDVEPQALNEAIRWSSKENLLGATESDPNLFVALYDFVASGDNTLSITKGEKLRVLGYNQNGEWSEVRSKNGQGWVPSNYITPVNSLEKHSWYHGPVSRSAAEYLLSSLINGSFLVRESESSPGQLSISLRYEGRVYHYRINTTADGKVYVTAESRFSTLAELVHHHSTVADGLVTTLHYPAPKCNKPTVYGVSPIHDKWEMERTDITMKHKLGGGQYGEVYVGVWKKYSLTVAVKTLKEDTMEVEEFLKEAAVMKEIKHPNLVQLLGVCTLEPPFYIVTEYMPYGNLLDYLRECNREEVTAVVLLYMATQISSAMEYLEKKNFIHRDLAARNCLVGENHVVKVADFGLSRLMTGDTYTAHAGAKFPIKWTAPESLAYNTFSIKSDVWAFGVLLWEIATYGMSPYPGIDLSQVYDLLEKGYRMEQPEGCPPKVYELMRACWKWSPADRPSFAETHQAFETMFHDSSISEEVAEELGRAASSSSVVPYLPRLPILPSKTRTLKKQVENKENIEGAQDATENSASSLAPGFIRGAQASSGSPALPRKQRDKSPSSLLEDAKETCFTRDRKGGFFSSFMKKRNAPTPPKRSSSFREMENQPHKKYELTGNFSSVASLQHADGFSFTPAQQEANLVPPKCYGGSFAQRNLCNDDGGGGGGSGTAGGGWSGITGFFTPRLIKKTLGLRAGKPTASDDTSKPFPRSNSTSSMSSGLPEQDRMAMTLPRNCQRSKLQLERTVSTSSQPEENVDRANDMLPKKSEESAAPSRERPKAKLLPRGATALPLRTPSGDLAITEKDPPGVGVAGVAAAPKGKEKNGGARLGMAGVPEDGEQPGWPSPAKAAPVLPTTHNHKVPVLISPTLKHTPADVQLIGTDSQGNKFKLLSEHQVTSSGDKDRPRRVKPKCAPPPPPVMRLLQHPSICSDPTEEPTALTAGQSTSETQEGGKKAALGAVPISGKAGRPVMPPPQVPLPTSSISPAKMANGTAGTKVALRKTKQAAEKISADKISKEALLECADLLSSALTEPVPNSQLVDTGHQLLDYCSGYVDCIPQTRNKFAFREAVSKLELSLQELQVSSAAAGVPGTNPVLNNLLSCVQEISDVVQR
# protocol-details: radiometric filter-binding kinase assay, Kinase HotSpot
# assay-conditions: compound 0.5 µM; ATP 10 µM
readout: residual activity (%)
Only the number, expressed in %, is required.

Looking up COc1cc2ncc(-c3ccccc3)nc2cc1OC , I found its residual activity recorded as 94

Looking up Cn1sc(=O)n(Cc2ccccc2)c1=O , I found its residual activity recorded as 96.7

Looking up CC(=O)O/N=C1\C(=C2\C(=O)Nc3cc(Br)ccc32)Nc2ccccc21 , I found its residual activity recorded as 26.4

Looking up Nc1nccc(-c2c(-c3ccc(F)cc3)ncn2C2CCNCC2)n1 , I found its residual activity recorded as 95.1

Looking up O=C1Nc2ccccc2/C1=C1\Nc2ccccc2\C1=N/O , I found its residual activity recorded as 60.3

Looking up O=C1NC(=O)C(c2cn(CCCO)c3ncccc23)=C1c1cnccn1 , I found its residual activity recorded as 83.7

Looking up Cn1nc2c3c(cccc31)C(=O)c1ccccc1-2 , I found its residual activity recorded as 97.8

Looking up Oc1ccc(Nc2nc(-c3ccc(Cl)cc3)cs2)cc1 , I found its residual activity recorded as 93.4

Looking up O=C1NC(=O)C(c2c[nH]c3ccccc23)=C1c1c[nH]c2ccccc12 , I found its residual activity recorded as 82.3

Looking up O=C1NC(=O)/C(=C\c2ccc3nccnc3c2)S1 , I found its residual activity recorded as 96.8

Looking up O=C1Nc2ccccc2/C1=C1/Nc2ccccc2/C1=N\OCCC(O)CO (stereo not drawn) , I found its residual activity recorded as 38.5

Looking up O=C(Nc1cccc(Nc2cc(Nc3cccc(C(F)(F)F)c3)ncn2)c1)C1CC1 , I found its residual activity recorded as 100

Looking up Cc1nc2cc3nc(-c4cccs4)cnc3cc2n1C , I found its residual activity recorded as 100

Looking up O=C(O)/C=C/c1cc(Br)c(Br)c(Br)c1Br , I found its residual activity recorded as 88.7

Looking up COc1ccc(CNC(=O)Nc2ncc([N+](=O)[O-])s2)cc1 , I found its residual activity recorded as 97.9

Looking up CCN(CC)CCCCN1c2ccccc2Oc2ccc(Cl)cc21 , I found its residual activity recorded as 101

Looking up CCn1cnc2c(Nc3cccc(Cl)c3)nc(N[C@@H]3CCCC[C@@H]3N)nc21 , I found its residual activity recorded as 65.7

Looking up O=C1Cc2c([nH]c3ccc(Br)cc23)-c2ccccc2N1 , I found its residual activity recorded as 84.9

Looking up O=C(CCCc1ccc(-c2ccccc2F)cc1)Nc1ccc(O)cc1 , I found its residual activity recorded as 95.3

Looking up Cn1cnc2cc3c(Nc4cccc(Br)c4)ncnc3cc21 , I found its residual activity recorded as 37

Looking up CN([C@@H](Cc1ccc(OS(=O)(=O)c2cccc3cnccc23)cc1)C(=O)N1CCN(c2ccccc2)CC1)S(=O)(=O)c1cccc2cnccc12 , I found its residual activity recorded as 98.9

Looking up COc1cc2ncnc(N3CCN(C(=O)Nc4ccc(Oc5ccccc5)cc4)CC3)c2cc1OC , I found its residual activity recorded as 92.9

Looking up CC(C)[C@H](CO)Nc1nc(Nc2cc(N)cc(Cl)c2)c2ncn(C(C)C)c2n1 , I found its residual activity recorded as 21.3

* * *

# system-tested: STK3 (human)
# protocol-details: radiometric filter-binding kinase assay, Kinase HotSpot
# assay-conditions: compound 0.5 µM; ATP 10 µM
Use 90% as the dividing line for residual activity, with the line itself on the YES side and lower values as NO.

IN: Could you please find out whether Cn1sc(=O)n(Cc2ccccc2)c1=O has residual activity that meets 90% or exceeds it?
OUT: YES

IN: Could you please find out whether O=C1NC(=O)/C(=C\c2ccc3nccnc3c2)S1 has residual activity that meets 90% or exceeds it?
OUT: YES

IN: Could you please find out whether CCN(CC)CCCCN1c2ccccc2Oc2ccc(Cl)cc21 has residual activity that meets 90% or exceeds it?
OUT: YES

IN: Could you please find out whether CN([C@@H](Cc1ccc(OS(=O)(=O)c2cccc3cnccc23)cc1)C(=O)N1CCN(c2ccccc2)CC1)S(=O)(=O)c1cccc2cnccc12 has residual activity that meets 90% or exceeds it?
OUT: YES

IN: Could you please find out whether O=C1NC(=O)C(c2c[nH]c3ccccc23)=C1c1c[nH]c2ccccc12 has residual activity that meets 90% or exceeds it?
OUT: NO

IN: Could you please find out whether COc1ccc(OC)c2c(=S)c3ccccc3[nH]c12 has residual activity that meets 90% or exceeds it?
OUT: YES

IN: Could you please find out whether COc1cc2ncnc(N3CCN(C(=O)Nc4ccc(Oc5ccccc5)cc4)CC3)c2cc1OC has residual activity that meets 90% or exceeds it?
OUT: YES

IN: Could you please find out whether CC(=O)O/N=C1\C(=C2\C(=O)Nc3cc(Br)ccc32)Nc2ccccc21 has residual activity that meets 90% or exceeds it?
OUT: NO

IN: Could you please find out whether O=C(Nc1cccc(Nc2cc(Nc3cccc(C(F)(F)F)c3)ncn2)c1)C1CC1 has residual activity that meets 90% or exceeds it?
OUT: YES

IN: Could you please find out whether O=C1Nc2ccccc2/C1=C1/Nc2ccccc2/C1=N\OCCC(O)CO (stereo not drawn) has residual activity that meets 90% or exceeds it?
OUT: NO

IN: Could you please find out whether Oc1ccc(Nc2nc(-c3ccc(Cl)cc3)cs2)cc1 has residual activity that meets 90% or exceeds it?
OUT: YES

IN: Could you please find out whether Nc1nccc(-c2c(-c3ccc(F)cc3)ncn2C2CCNCC2)n1 has residual activity that meets 90% or exceeds it?
OUT: YES

IN: Could you please find out whether CCn1cnc2c(Nc3cccc(Cl)c3)nc(N[C@@H]3CCCC[C@@H]3N)nc21 has residual activity that meets 90% or exceeds it?
OUT: NO

IN: Could you please find out whether O=C1NC(=O)C(c2cn(CCCO)c3ncccc23)=C1c1cnccn1 has residual activity that meets 90% or exceeds it?
OUT: NO

IN: Could you please find out whether O=C1Cc2c([nH]c3ccc(Br)cc23)-c2ccccc2N1 has residual activity that meets 90% or exceeds it?
OUT: NO

IN: Could you please find out whether CC(C)[C@H](CO)Nc1nc(Nc2cc(N)cc(Cl)c2)c2ncn(C(C)C)c2n1 has residual activity that meets 90% or exceeds it?
OUT: NO

IN: Could you please find out whether Cc1nc2cc3nc(-c4cccs4)cnc3cc2n1C has residual activity that meets 90% or exceeds it?
OUT: YES

IN: Could you please find out whether O=C(CCCc1ccc(-c2ccccc2F)cc1)Nc1ccc(O)cc1 has residual activity that meets 90% or exceeds it?
OUT: YES

* * *

# system-tested: TGFBR2 (human)
# protocol-details: radiometric filter-binding kinase assay, Kinase HotSpot
# assay-conditions: compound 0.5 µM; ATP 10 µM
readout: residual activity (%)
Only the number, expressed in %, is required.

Looking up Nc1nnc2[nH]c3ccccc3nc1-2 , I found its residual activity recorded as 82.4

Looking up O=C(CCCc1ccc(-c2ccccc2F)cc1)Nc1ccc(O)cc1 , I found its residual activity recorded as 101

Looking up CC(=O)O/N=C1\C(=C2\C(=O)Nc3cc(Br)ccc32)Nc2ccccc21 , I found its residual activity recorded as 132

Looking up Cn1nc2c3c(cccc31)C(=O)c1ccccc1-2 , I found its residual activity recorded as 94.9

Looking up CN(C)C[C@H]1CCn2c(c(C3=C(c4cn(C)c5ccccc45)C(=O)NC3=O)c3ccccc32)C1 , I found its residual activity recorded as 98.5

Looking up COc1ccc(CNC(=O)Nc2ncc([N+](=O)[O-])s2)cc1 , I found its residual activity recorded as 117

Looking up CC(C)[C@H](CO)Nc1nc(Nc2cc(N)cc(Cl)c2)c2ncn(C(C)C)c2n1 , I found its residual activity recorded as 93.5

Looking up Cn1cnc2cc3c(Nc4cccc(Br)c4)ncnc3cc21 , I found its residual activity recorded as 98.9

Looking up Cn1sc(=O)n(Cc2ccccc2)c1=O , I found its residual activity recorded as 123

Looking up O=C1Nc2ccccc2/C1=C1\Nc2ccccc2\C1=N/O , I found its residual activity recorded as 113

Looking up O=C1NC(=O)C(c2cn(CCCO)c3ncccc23)=C1c1cnccn1 , I found its residual activity recorded as 122

Looking up Oc1ccc(Nc2nc(-c3ccc(Cl)cc3)cs2)cc1 , I found its residual activity recorded as 112

Looking up CC(C)c1nn(-c2c(Cl)cccc2Cl)c2nc(Cc3ccc(OCCO)cc3)nc(O)c12 , I found its residual activity recorded as 74.3

Looking up COc1cc2ncnc(N3CCN(C(=O)Nc4ccc(Oc5ccccc5)cc4)CC3)c2cc1OC , I found its residual activity recorded as 102

Looking up CCN(CC)CCCCN1c2ccccc2Oc2ccc(Cl)cc21 , I found its residual activity recorded as 96

Looking up O=C1NC(=O)C(c2c[nH]c3ccccc23)=C1c1c[nH]c2ccccc12 , I found its residual activity recorded as 95.5

Looking up O=C(Nc1cccc(Nc2cc(Nc3cccc(C(F)(F)F)c3)ncn2)c1)C1CC1 , I found its residual activity recorded as 105

Looking up CN([C@@H](Cc1ccc(OS(=O)(=O)c2cccc3cnccc23)cc1)C(=O)N1CCN(c2ccccc2)CC1)S(=O)(=O)c1cccc2cnccc12 , I found its residual activity recorded as 101

Looking up Cc1nc2cc3nc(-c4cccs4)cnc3cc2n1C , I found its residual activity recorded as 89.2

Looking up COc1cc2ncc(-c3ccccc3)nc2cc1OC , I found its residual activity recorded as 75

Looking up O=C(O)/C=C/c1cc(Br)c(Br)c(Br)c1Br , I found its residual activity recorded as 85.7

Looking up O=C1Cc2c([nH]c3ccc(Br)cc23)-c2ccccc2N1 , I found its residual activity recorded as 74.2

Looking up COc1ccc(OC)c2c(=S)c3ccccc3[nH]c12 , I found its residual activity recorded as 109

Looking up O=C1NC(=O)/C(=C\c2ccc3nccnc3c2)S1 , I found its residual activity recorded as 108

Looking up CCn1cnc2c(Nc3cccc(Cl)c3)nc(N[C@@H]3CCCC[C@@H]3N)nc21 , I found its residual activity recorded as 91.2

Looking up Nc1nccc(-c2c(-c3ccc(F)cc3)ncn2C2CCNCC2)n1 , I found its residual activity recorded as 119

Looking up O=C1Nc2ccccc2/C1=C1/Nc2ccccc2/C1=N\OCCC(O)CO (configuration not stated) , I found its residual activity recorded as 119
